Data credit: paper PMC524486

test system: M. tuberculosis; experiment: In vitro growth inhibition, microtitre doubling dilution, A650 nm; assay type: cell-based, M. tuberculosis H37Rv; details: Mycobacterium tuberculosis, 336 h
OBSERVED PROPERTY: pIC50
Scale for pIC50: -log10 of concentration given in mol/L; no unit attached.

Asked: Give the value of pIC50 reported for the following: NOCC[C@H](N)C(=O)O [canaline]
Given back: 3.56

###

We begin with a simple list: items and their reported Apparent Vmax.
system: M. tuberculosis branched-chain aminotransferase; format: biochemical, Mycobacterium tuberculosis H37Rv; settings: varying substrate, 10 mM cosubstrate KMTB; Met formation
Please give a number only; it is taken to be in μmol/min/mg protein.

Illustrative cases are given below, each with its answer.
CC[C@H](C)[C@H](N)C(=O)O [Ile, Isoleucine] : 4.28
N[C@@H](CCC(=O)O)C(=O)O [Glu, glutamate] : 5.70
N[C@@H](Cc1ccccc1)C(=O)O [Phe, phenylalanine] : 2.17
CC(C)[C@H](N)C(=O)O [Val, valine] : 2.58

Okay, next one:
Asked: Give the value of Apparent Vmax reported for the following: CC(C)C[C@H](N)C(=O)O [Leu, leucine]
Given back: 3.65

###

We begin with a simple list: items and their reported Kiu (uncompetitive component of mixed-type inhibition).
target: M. tuberculosis BCAT (Mycobacterium tuberculosis, UniProt P9WQ75); assay: Inhibition of BCAT-catalysed Met formation by aminooxy compounds; type: biochemical, Mycobacterium tuberculosis H37Rv; conditions: 0.5-3.0 mM Leu, 1.0 mM KMTB, 0-200 μM inhibitor
Sequence (P9WQ75 whole entry, looked up): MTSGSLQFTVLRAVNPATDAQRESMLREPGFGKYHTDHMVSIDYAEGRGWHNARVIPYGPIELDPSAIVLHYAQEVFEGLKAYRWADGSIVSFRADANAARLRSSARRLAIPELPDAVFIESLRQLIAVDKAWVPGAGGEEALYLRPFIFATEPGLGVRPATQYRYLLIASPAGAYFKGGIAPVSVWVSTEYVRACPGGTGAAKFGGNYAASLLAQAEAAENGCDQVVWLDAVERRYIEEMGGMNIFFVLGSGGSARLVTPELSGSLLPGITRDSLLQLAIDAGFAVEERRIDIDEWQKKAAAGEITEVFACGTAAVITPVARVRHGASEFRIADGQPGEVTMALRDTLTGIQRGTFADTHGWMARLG
Please give a number only; it is taken to be in µM.

Illustrative cases are given below, each with its answer.
NOCc1ccccc1 [O-benzylhydroxylamine] : 84.08
NOCC(=O)O : 142.42

Okay, next one:
Asked: Give the value of Kiu (uncompetitive component of mixed-type inhibition) reported for the following: CC(C)(C)ON [O-(t-butyl)hydroxylamine]
Given back: 85.60

###

test system: M. tuberculosis branched-chain aminotransferase; format: biochemical, Mycobacterium tuberculosis H37Rv; conditions: varying substrate, 10 mM cosubstrate KMTB; Met formation; read-out: Apparent Km
// classify: if (Km < 7000 µM) yes (1) else no (0)

Illustrative cases are given below, each with its answer.
CC(C)[C@H](N)C(=O)O [Val, valine] : yes (1)
N[C@@H](CCC(=O)O)C(=O)O [Glu, glutamate] : no (0)
N[C@@H](Cc1ccccc1)C(=O)O [Phe, phenylalanine] : no (0)

Asked: Check if Km falls below 7000 µM for CC(C)C[C@H](N)C(=O)O [Leu, leucine] .
Given back: yes (1)

Asked: Check if Km falls below 7000 µM for CC[C@H](C)[C@H](N)C(=O)O [Ile, Isoleucine] .
Given back: yes (1)
